Experiment: qHTS Assay for Lipid Storage Modulators in Drosophila S3 Cells;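 on cell number change: cells counted by Cell Tracker Red CMTPX staining in the red channel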
Conditions: BODIPY lipid droplet fluorescence, 18-24 h, cells fed with added oleic acid; measured here: cell count max response
In all, about 320,000 compounds went through this assay and about 2,100 (0.66%) were called active. About 53% were inconclusive and are not listed. The entries come from a sample that favours actives as a whole.
Classify: Yes when cell number change is strictly less than 10%; No when cell number change is not.

Exercise: Is it true that cell number change reported for CC(NC(=O)c1ccc(S(=O)(=O)Nc2ccccc2)cc1)c1ccc(S(N)(=O)=O)cc1 (stereo not given) is less than 10%?
Solution: Yes

Exercise: Is it true that cell number change reported for C(=N\n1cnnc1)/c1ccc2c(c1)OCO2 is less than 10%?
Solution: No

Exercise: Is it true that cell number change reported for COc1ccc(NCc2nnc(SCC(=O)Nc3ccc(OC)cc3OC)o2)cc1 is less than 10%?
Solution: Yes

Exercise: Is it true that cell number change reported for Cc1ccc(NC(=O)C(C)Sc2nnc(C)n2CC2CCCO2)cc1 (stereo not given) is less than 10%?
Solution: No

Exercise: Is it true that cell number change reported for COC(=O)c1cc(-c2ccccc2)c2c(=O)n(C)c(=O)n(C)c2n1 is less than 10%?
Solution: Yes

====

Provide the recorded cell number change for the entries that follow.
Assay: qHTS Assay for Lipid Storage Modulators in Drosophila S3 Cells;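 on cell number change: cells counted by Cell Tracker Red CMTPX staining in the red channel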
Conditions: BODIPY lipid droplet fluorescence, 18-24 h, cells fed with added oleic acid; measured here: cell count max response
Out of some 320,000 compounds screened, about 2,100 (0.66%) were called active. Not shown: some 53% with an inconclusive outcome. Shown is part of a subset that was picked to be rich in actives.
Please state the figure in %; there is no need to write the unit.

Reported cell number change for C=CCn1cccc(C(=O)Nc2ccc(C)cc2)c1=O was 10.2

Reported cell number change for COc1ccc(N2C(=O)/C(=C/c3ccc([N+](=O)[O-])cc3)N=C2C)c(OC)c1 was -0.57

Reported cell number change for CCC(C)Sc1ccc(-c2nc3ccc(C)cn3c2NC2CCCCC2)cc1 (configuration not stated) was -1.01

Reported cell number change for Cc1ccc[n+](CC(=O)c2ccc(Br)cc2)c1 was 14.7

Reported cell number change for CC(C)CC(=O)Nc1ccc(N2CCOCC2)cc1 was -6.68

Reported cell number change for COc1ccc2c(c1)c(CC(=O)OC(C)C(=O)N(C)C)c(C)n2C(=O)c1ccc(Cl)cc1 (configuration not stated) was -15.8

Reported cell number change for Cc1cccc(NC(=O)c2c(C)cc(=O)oc2C)n1 was -10.1

Reported cell number change for Cc1ccc(-c2nnn(CCC(=O)N3CCCCC3C)n2)cc1 (configuration not stated) was 10.5

Reported cell number change for Fc1ccccc1CNc1ccc(Cl)cc1 was -4.41

Reported cell number change for COc1ccc(C(=O)CN2CCN(c3ccc(Cl)cc3)CC2)cc1OC was 16.9

Reported cell number change for CCN(CC)CCCNC(=O)CSc1nc(-c2ccc(F)cc2)cc(C(F)(F)F)n1 was 4.94

Reported cell number change for COc1ccc(/C=N\Nc2ccccc2[N+](=O)[O-])c(C(=O)O)c1OC was 2.19

====

Assay: qHTS Assay for Lipid Storage Modulators in Drosophila S3 Cells
Conditions: BODIPY lipid droplet fluorescence, 18-24 h, cells fed with added oleic acid; series mostly up to 46.1 µM
The campaign covered roughly 320,000 compounds. About 2,100 (0.66%) were called active. Roughly 53% stayed inconclusive and do not appear here. Calls come from the whole dose curve; as a rule, active = well fitted inhibition curve with a large enough effect in the signal ratio, with a control signal flat (not every such curve was filed as active); inconclusive = small, poorly fitted or top-dose-only effect, or effect the other way, or a change in a side signal; inactive = flat fitted curve, though single readings scatter; the % refers to the signal ratio. Only a selection was taken, and actives are over-represented in it overall.
Parameter call: string, one of YES for active, NO for inactive

Exercise: Entry CCOc1ccc(C2c3[nH]c4ccccc4c3C[C@H]3C(=O)N(C4CC4)CC(=O)N23)cc1OC (stereo partly specified) : call = ?
Solution: NO

Exercise: Entry O=C(O)COCc1nc2ccccc2[nH]1 : call = ?
Solution: NO

Exercise: Entry CCc1ccccc1N(CC(=O)NCC1CCCO1)C(=O)CCC(=O)Nc1cc(C)on1 (stereo unspecified) : call = ?
Solution: YES

Exercise: Entry CC(=O)CCC(=O)NC1CCCc2c1cnn2-c1ccc(C(C)(C)C)cc1 (stereo unspecified) : call = ?
Solution: YES

Exercise: Entry CC(=O)Nc1cccc(C(=O)NC2CCCc3c2cnn3-c2ccc(C(C)(C)C)cc2)c1 (stereo unspecified) : call = ?
Solution: NO

Exercise: Entry CC(C)(Cc1nc2ccccc2[nH]1)C(=O)O : call = ?
Solution: YES

Exercise: Entry Cc1ccc(C(=O)C2=C(O)C(=O)N(Cc3cccnc3)C2c2ccc(Br)cc2)o1 (stereo unspecified) : call = ?
Solution: NO

Exercise: Entry CC(C)C[C@H](NC(=O)C1(c2ccccc2)CCN(C(=O)[C@H]2CSCN2C(=O)OC(C)(C)C)CC1)C(=O)O : call = ?
Solution: NO

Exercise: Entry Oc1ccc(N=Nc2ccc3ccccc3c2)cc1 : call = ?
Solution: NO

Exercise: Entry Cc1cccc(N2CC(C(=O)Nc3nnc(SCc4cccnc4)s3)CC2=O)c1 (stereo unspecified) : call = ?
Solution: NO

Exercise: Entry COc1ccc(CNC(=O)CN2C(=O)NC(C)(c3ccc(C(C)(C)C)cc3)C2=O)cc1 (stereo unspecified) : call = ?
Solution: NO

Exercise: Entry Cc1cc(NC(=O)CCC(=O)N(CC(=O)NCC2CCCO2)c2ccc3c(c2)OCCO3)no1 (stereo unspecified) : call = ?
Solution: NO

Exercise: Entry O=C(CN1C(=O)NC2(CCCCCC2)C1=O)NCc1cccs1 : call = ?
Solution: NO

Exercise: Entry CCc1ccc(-c2cc(C)no2)cc1S(=O)(=O)NCc1ccccc1OC : call = ?
Solution: NO

Exercise: Entry N/C(=N\OC(=O)c1ccc([N+](=O)[O-])cc1)c1ccc(Br)cc1 : call = ?
Solution: NO

Exercise: Entry Cc1cc(NC(=O)CCC(=O)N(CC(=O)NCC2CCCO2)c2ccccc2C)no1 (stereo unspecified) : call = ?
Solution: NO

Exercise: Entry COc1ccccc1NS(=O)(=O)c1ccc(C(=O)NCC(c2ccccc2OC)N(C)C)cc1 (stereo unspecified) : call = ?
Solution: NO

Exercise: Entry Cc1cc(C)n(CC(=O)NC2CCCc3c2cnn3-c2ccccc2F)n1 (stereo unspecified) : call = ?
Solution: NO

Exercise: Entry Cc1ccc(-n2ncc3c2CC(C)(C)CC3NC(=O)CCn2cncn2)cc1 (stereo unspecified) : call = ?
Solution: NO

Exercise: Entry N/C(Cc1ccc([N+](=O)[O-])cc1)=N\OC(=O)c1ccc(Br)o1 : call = ?
Solution: NO

Exercise: Entry Cc1cc(OCC(=O)NCc2nc(-c3ccccc3)no2)c(C)cc1Br : call = ?
Solution: NO

Exercise: Entry COc1cccc(/C=C/C(=O)OCC(=O)Nc2cc(C(F)(F)F)ccc2Cl)c1 : call = ?
Solution: NO

Exercise: Entry CCOc1ccccc1C(=O)Nc1ccc2nc3n(c(=O)c2c1)CCCCC3 : call = ?
Solution: YES

Exercise: Entry Cc1ccc(OCC(O)CN2CCN(c3ccccc3)CC2)cc1 (stereo unspecified) : call = ?
Solution: NO

Exercise: Entry COc1ccc(NC(=O)CSCC(=O)N=c2sccn2C)cc1 : call = ?
Solution: NO

Exercise: Entry CCOC(=O)C1CCCN(CCC(=O)Nc2ccc(Br)c(C)c2)C1 (stereo unspecified) : call = ?
Solution: YES

Exercise: Entry O=C(O)C1CCCN(S(=O)(=O)c2ccc(-c3ccc(=O)[nH]n3)s2)C1 (stereo unspecified) : call = ?
Solution: NO

Exercise: Entry CC(C)(C)c1ccc(C2(C)NC(=O)N(CC(=O)NCc3cccs3)C2=O)cc1 (stereo unspecified) : call = ?
Solution: YES

Exercise: Entry COc1ccc(N=Nc2ccc3ccccc3c2)c(O)c1 : call = ?
Solution: YES

Exercise: Entry CCOc1ccccc1N(CC(=O)NCC1CCCO1)C(=O)CCC(=O)Nc1cc(C)on1 (stereo unspecified) : call = ?
Solution: NO

Exercise: Entry CCn1nc(C)cc1C(=O)NC1CCCc2c1cnn2-c1ccc(C)c(C)c1 (stereo unspecified) : call = ?
Solution: NO

====

Experiment: qHTS Assay for Lipid Storage Modulators in Drosophila S3 Cells
Conditions: BODIPY lipid droplet fluorescence, 18-24 h, cells fed with added oleic acid; series mostly up to 46.1 µM
The whole screen tested about 320,000 compounds, of which about 2,100 (0.66%) were called active. About 53% were inconclusive and are not listed. The call rests on the fitted dose curve; in most records, active means well fitted inhibition curve with a large enough effect in the signal ratio, with a control signal flat (not every such curve was filed as active); inconclusive means small, poorly fitted or top-dose-only effect, or effect the other way, or a change in a side signal; inactive means flat fitted curve, though single readings scatter; the % refers to the signal ratio. Many of the other results were omitted from the sample, so actives are more common in it than they were.
Parameter call: string, one of active, inactive

Exercise: Entry Cc1nn(C)c(=S)n1-c1ccc(Cl)cc1 : call = ?
Solution: inactive

Exercise: Entry O=C(NCCN1C(=O)S/C(=C\c2ccc(F)cc2)C1=O)c1cccc(S(=O)(=O)N2CCOCC2)c1 : call = ?
Solution: active

Exercise: Entry CCOc1cc(-c2ccc3c(c2)OCO3)cc(=O)c2c(C)oc(C)c12 : call = ?
Solution: inactive

====

Assay: qHTS Assay for Lipid Storage Modulators in Drosophila S3 Cells
Conditions: BODIPY lipid droplet fluorescence, 18-24 h, cells fed with added oleic acid; series mostly up to 46.1 µM
The campaign covered roughly 320,000 compounds. About 2,100 (0.66%) were called active. Roughly 53% stayed inconclusive and do not appear here. The call rests on the fitted dose curve; in most records, active means well fitted inhibition curve with a large enough effect in the signal ratio, with a control signal flat (not every such curve was filed as active); inconclusive means small, poorly fitted or top-dose-only effect, or effect the other way, or a change in a side signal; inactive means flat fitted curve, though single readings scatter; the % refers to the signal ratio. For the sample, actives were picked, then their nearest neighbours and some compounds at random.
Parameter call: string, one of active, inactive

Exercise: Entry CN(c1ccccc1)S(=O)(=O)c1ccc(C(=O)NCc2ccccc2F)cc1 : call = ?
Solution: active

Exercise: Entry CCCS(=O)(=O)c1nc(S(=O)(=O)c2ccc(C)cc2)c(N2CCC3(CC2)OCCO3)s1 : call = ?
Solution: inactive

Exercise: Entry O=C(CN(Cc1ccccc1)S(=O)(=O)c1ccccc1)N/N=C/c1ccc([N+](=O)[O-])cc1 : call = ?
Solution: inactive

Exercise: Entry O=C(CSCC(=O)NCc1ccco1)NCc1ccco1 : call = ?
Solution: active

Exercise: Entry CCN(CC)S(=O)(=O)c1ccc(C(=O)NCCCN=C2NS(=O)(=O)c3ccccc32)cc1 : call = ?
Solution: inactive

Exercise: Entry O=C(CN1CCc2ccccc21)NC(=O)NCc1ccccc1 : call = ?
Solution: inactive

Exercise: Entry Nc1nc2ccc(C(=O)Nc3ccccc3)cc2s1 : call = ?
Solution: inactive

Exercise: Entry COc1ccc(C(=O)Nc2ccc(NC(C)=O)cc2)cc1S(=O)(=O)N1CCCCC1C (stereo not drawn) : call = ?
Solution: inactive

Exercise: Entry O=C(Cc1ccccc1)NCC(=O)N/N=C/c1ccc([N+](=O)[O-])s1 : call = ?
Solution: active

Exercise: Entry CCOC(=O)N1CCN(C(=O)CCSc2ccc(Cl)cc2)CC1 : call = ?
Solution: inactive

Exercise: Entry CCCCn1c(SCC(=O)NCc2ccco2)nnc1-c1ccco1 : call = ?
Solution: inactive

Exercise: Entry CCn1c(=S)sc2c(=O)n(CC(=O)Nc3ccccc3)c(C)nc21 : call = ?
Solution: inactive

Exercise: Entry O=C(NCc1ccccc1F)c1ccc(S(=O)(=O)N2CCCCCC2)cc1 : call = ?
Solution: active

Exercise: Entry COc1ccc(Cn2nc(C)cc2C)cc1OC : call = ?
Solution: inactive

Exercise: Entry O=C(O)c1ccc(CNC(=O)c2ccc(S(=O)(=O)N3CCCCC3)cc2)cc1 : call = ?
Solution: inactive

Exercise: Entry O=C(CSc1ccccc1)NCc1ccco1 : call = ?
Solution: inactive

Exercise: Entry O=C(N/N=C/c1ccc([N+](=O)[O-])s1)c1ccccc1 : call = ?
Solution: inactive

Exercise: Entry CCCCn1nnnc1SCC(=O)NNC(=O)c1ccco1 : call = ?
Solution: inactive

Exercise: Entry Cc1ccc(C)c2[nH]c(=O)c(CCNC(=O)c3ccc(S(=O)(=O)N4CCCC4)cc3)cc12 : call = ?
Solution: active

Exercise: Entry O=C(NCc1ccccc1F)c1cccc(S(=O)(=O)N2CCCCCC2)c1 : call = ?
Solution: inactive

Exercise: Entry COc1ccc2nc(NC(=O)CCN3C(=S)NC(C)(C)CC3C)sc2c1 (stereo not drawn) : call = ?
Solution: inactive

Exercise: Entry CCOC(=O)N1CCN(C(=O)CSc2ccccc2)CC1 : call = ?
Solution: inactive

Exercise: Entry COc1ccccc1/C=N/OC(=O)c1ccc(F)cc1 : call = ?
Solution: inactive

Exercise: Entry O=C(c1ccccc1)N1CCN(CC(O)COC2CCCCC2)CC1 (stereo not drawn) : call = ?
Solution: inactive

Exercise: Entry CNc1nc(N)c([N+](=O)[O-])c(Nc2ccccc2OC)n1 : call = ?
Solution: inactive

Exercise: Entry Cc1cc(C(=O)OCC(=O)NC2CCC(C)CC2)c(C)o1 (stereo not drawn) : call = ?
Solution: inactive

Exercise: Entry Cc1cc(C)cc(N(CC(=O)O)S(=O)(=O)c2c(C)noc2C)c1 : call = ?
Solution: active

Exercise: Entry CCOC(=O)N1CCN(C(=O)CSc2ccc(Cl)cc2)CC1 : call = ?
Solution: active

Exercise: Entry Cc1nc2cc(NC(=O)Nc3cccc4ccccc34)ccc2n1C : call = ?
Solution: inactive

Exercise: Entry COc1ccc(NC(=O)CCC(=O)N/N=C/c2cccnc2)cc1 : call = ?
Solution: inactive

Exercise: Entry N/C(=N\OC(=O)C12CC3CC(CC(C3)C1)C2)c1ccncc1 : call = ?
Solution: inactive

Exercise: Entry Cn1c(SCc2cccc(C#N)c2)nc2ccccc2c1=O : call = ?
Solution: inactive

Exercise: Entry COc1cc(C(=O)NCCc2ccc(F)cc2)c([N+](=O)[O-])cc1OC : call = ?
Solution: inactive
